Experiment: Pharmacokinetics after intravenous and oral administration in monkeys
Type: in vivo
Settings: plasma; Monkey, iv dose 1 mg/kg; oral dose generally 10 mg/kg
Measurement name: bioavailability
// unit must come after the numeric part

// Cc1noc(-c2c(N)ncnc2N[C@@H](C)c2nc3cccc(Cl)c3c(=O)n2-c2ccccc2)n1 : bioavailability value = 10%

// Cc1nnc(-c2c(N)ncnc2N[C@@H](C)c2nc3cccc(Cl)c3c(=O)n2-c2ccccc2)o1 : bioavailability value = 134%

// CC[C@H](Nc1ncnc(N)c1-c1nc(C)no1)c1nc2cccc(Cl)c2c(=O)n1C1CC1 : bioavailability value = 55.4%

---

Assay: Pharmacokinetics after intravenous and oral administration in dogs
Format: in vivo
Details: plasma; Dog, iv dose 1 mg/kg; oral dose generally 10 mg/kg
Measurement name: bioavailability (%)
Express the result in % but write the number alone.

// CC[C@H](Nc1ncnc(N)c1-c1nc(C)no1)c1nc2cccc(Cl)c2c(=O)n1C1CC1 [Ex. 4] : bioavailability value = 34.1

// Cc1nnc(-c2c(N)ncnc2N[C@@H](C)c2nc3cccc(Cl)c3c(=O)n2-c2ccccc2)o1 [Ex. 64] : bioavailability value = 76.3

// Cc1noc(-c2c(N)ncnc2N[C@@H](C)c2nc3cccc(Cl)c3c(=O)n2-c2ccccc2)n1 [Ex. 65] : bioavailability value = 24.8

// provenance: patent US9670194B2
